target: testosterone (T) production in NCI-H295R cells (Homo sapiens); construct: testosterone measured by LC-MS/MS as downstream steroid; test: H295R Steroid Biosynthesis Inhibition Assay - inhibition of testosterone (T) production in NCI-H295R cells; conditions: 48 h, LC-MS/MS, read-out: Inh. of T IC50
pIC50: −log10 of the molar value.
Record form. Attribute: pIC50. Fill in for each entry.

Hello, I am looking for reported pIC50 with testosterone (T) production in NCI-H295R cells (Homo sapiens) for CS(=O)(=O)N1CCCC(c2cc3oc(CN4Cc5ccccc5C4)cc(=O)c3o2)C1 (stereo not drawn) [Compound 16] . Could you help?
≤ 7.00

Hello, I am looking for reported pIC50 with testosterone (T) production in NCI-H295R cells (Homo sapiens) for CS(=O)(=O)N1CCC(c2cnc3cc(CN4CCn5cccc5C4)ccc3n2)CC1 [Compound 125] . Could you help?
≤ 7.00

Hello, I am looking for reported pIC50 with testosterone (T) production in NCI-H295R cells (Homo sapiens) for CP(C)(=O)c1ccc(-c2cc3oc(CN4Cc5ccccc5C4)cc(=O)c3o2)cc1 [Compound 50] . Could you help?
≤ 7.00

Hello, I am looking for reported pIC50 with testosterone (T) production in NCI-H295R cells (Homo sapiens) for O=c1cc(CN2Cc3ccccc3C2)oc2cc(C3CC4(COC4)C3)oc12 [Compound 25] . Could you help?
≥ 7.40

Hello, I am looking for reported pIC50 with testosterone (T) production in NCI-H295R cells (Homo sapiens) for O=c1cc(CN2Cc3ccccc3C2)oc2cc([C@H]3CC[C@@](O)(C(F)(F)F)CC3)oc12 [Compound 37] . Could you help?
≥ 7.40

Hello, I am looking for reported pIC50 with testosterone (T) production in NCI-H295R cells (Homo sapiens) for CC(c1ccc(OCC2CCN(S(C)(=O)=O)CC2)c2ncccc12)N1Cc2ccccc2C1 (stereo not drawn) [Compound 9] . Could you help?
≥ 7.40

Hello, I am looking for reported pIC50 with testosterone (T) production in NCI-H295R cells (Homo sapiens) for O=C(C(F)F)N1CCC(c2cnc3cc(CN4Cc5ccccc5C4)ccc3n2)CC1 [Compound 103] . Could you help?
≤ 7.00

Hello, I am looking for reported pIC50 with testosterone (T) production in NCI-H295R cells (Homo sapiens) for Cn1ccnc1C(=O)N1CCC(c2cnc3cc(CN4Cc5ccccc5C4)ccc3n2)CC1 [Compound 108] . Could you help?
≤ 7.00

Hello, I am looking for reported pIC50 with testosterone (T) production in NCI-H295R cells (Homo sapiens) for CC(c1cc(=O)c2oc([C@H]3CC[C@H](O)CC3)cc2o1)N1Cc2ccccc2C1 (stereo partly drawn) [Compound 31] . Could you help?
≥ 7.40

Hello, I am looking for reported pIC50 with testosterone (T) production in NCI-H295R cells (Homo sapiens) for Cn1c(C2CCN(S(C)(=O)=O)CC2)nc2cc(CN3Cc4ccccc4C3)ccc21 [Compound 129] . Could you help?
≤ 7.00

Hello, I am looking for reported pIC50 with testosterone (T) production in NCI-H295R cells (Homo sapiens) for CNS(=O)(=O)c1ccc(-c2cc3oc(CN4Cc5ccccc5C4)cc(=O)c3o2)cc1 [Compound 51] . Could you help?
≥ 7.40

Hello, I am looking for reported pIC50 with testosterone (T) production in NCI-H295R cells (Homo sapiens) for CS(=O)(=O)N1CC2(CC(c3cc4oc(CN5Cc6ccccc6C5)cc(=O)c4o3)C2)C1 [Compound 23] . Could you help?
≥ 7.40

Hello, I am looking for reported pIC50 with testosterone (T) production in NCI-H295R cells (Homo sapiens) for CS(=O)(=O)N1CCC(c2cc(Cl)c3cc(CN4Cc5ccccc5C4)ccc3n2)CC1 [Compound 77] . Could you help?
≥ 7.40

Hello, I am looking for reported pIC50 with testosterone (T) production in NCI-H295R cells (Homo sapiens) for CC(c1ncc(OCC2CCN(S(C)(=O)=O)CC2)c2ncccc12)N1Cc2ccccc2C1 (stereo not drawn) [Compound 12] . Could you help?
≥ 7.40

Hello, I am looking for reported pIC50 with testosterone (T) production in NCI-H295R cells (Homo sapiens) for COc1ccc2c(c1)CN(Cc1ccc3nc(C4CCN(S(C)(=O)=O)CC4)ccc3c1)C2 [Compound 73] . Could you help?
≥ 7.40

Hello, I am looking for reported pIC50 with testosterone (T) production in NCI-H295R cells (Homo sapiens) for Cc1nc(C2CCN(S(C)(=O)=O)CC2)nc2ccc(CN3CCn4cccc4C3)cc12 [Compound 84] . Could you help?
≤ 7.00

Hello, I am looking for reported pIC50 with testosterone (T) production in NCI-H295R cells (Homo sapiens) for CCCCS(=O)(=O)N1CCC(c2cnc3cc(CN4Cc5ccccc5C4)ccc3n2)CC1 [Compound 93] . Could you help?
≥ 7.40

Hello, I am looking for reported pIC50 with testosterone (T) production in NCI-H295R cells (Homo sapiens) for COC(=O)N1CCC(c2cnc3cc(CN4Cc5ccccc5C4)ccc3n2)CC1 [Compound 110] . Could you help?
≥ 7.40
